Items are presented alongside their recorded IC50.
- measurementTarget: hNav1.7 (Homo sapiens (Human))
- experimentDescription: Tritiated compound binding to membranes from cells heterologously expressing hNav1.7 and the β1 subunit (LBA)
- appliedConditions: competitive binding vs [3H]compound, membranes with hNav1.7 and β1 subunit; read-out: Nav1.7 LBA EVO IC50
Put down the number, then write its unit next to it.

Entry COc1cc(-c2cccc(C(F)(F)F)c2)c(F)cc1N1C(=O)CC[C@H]2CN(S(=O)(=O)Nc3ccon3)CCC21 (stereo in doubt) [Example 37] : IC50 on hNav1.7 (Homo sapiens (Human)) = 761 nM

* * *

- measurementTarget: UniProt Q15858
- experimentDescription: Electrophysiological assay (EP), voltage clamp on Syncropatch 384PE
- Format: cell-based
- appliedConditions: CHO cells expressing Nav1.7, holding potential −50 mV, 7.5 min compound incubation; read-out: EP_SP hNav1.7 EVO IC50
Items are presented alongside their recorded pIC50.
Quick note: pIC50 values are minus log10 of concentrations in mol/L.

In [3]: df
Out[3]:
                                   compound  assayvalue
0  N#Cc1cc(-c2cccc(C(F)(F)F)c2)c(F)cc1N1C(=O)CO[C@@H]2CN(S(=O)(=O)Nc3ccon3)CC[C@H]21 [Example 23]        7.30
1  COc1cc(-c2cccc(OC(F)(F)F)c2)c(F)cc1N1CCO[C@@H]2CN(S(=O)(=O)Nc3ccon3)CC[C@H]21 [Example 31]        8.22

For the next question, use this compound.
Entry COc1cc(-c2cccc(Cl)c2)c(F)cc1N1C(=O)CO[C@H]2CN(S(=O)(=O)Nc3ccon3)CC[C@@H]21 [Example 14] : pIC50 on UniProt Q15858 = 8.14

* * *

Items are presented alongside their recorded log10 of IC50.
- measurementTarget: hNav1.7 (Homo sapiens (Human), UniProt Q15858)
- experimentDescription: Electrophysiological assay (EP), voltage clamp on Syncropatch 384PE
- Format: cell-based
- appliedConditions: CHO cells expressing Nav1.7, holding potential −50 mV, 7.5 min compound incubation; read-out: EP_SP hNav1.7 EVO IC50
Remember, log10 of IC50, in nM.

>>> print(df.to_string())
                                   compound                         measurementtarget  attributemeasured  assayvalue
0  COc1cc(-c2cccc(OC(F)(F)F)c2)c(F)cc1N1C(=O)CO[C@H]2CN(S(=O)(=O)Nc3ccon3)CC[C@@H]21  hNav1.7 (Homo sapiens (Human), UniProt Q15858)      log10 of IC50        0.37
1  COc1cc(-c2cccc(C(F)(F)F)c2)ccc1N1C(=O)CO[C@H]2CN(S(=O)(=O)Nc3ccon3)CC[C@@H]21  hNav1.7 (Homo sapiens (Human), UniProt Q15858)      log10 of IC50        0.77
2  COc1cc(-c2cccc(C(F)(F)F)c2)cc(F)c1N1C(=O)CO[C@@H]2CN(S(=O)(=O)Nc3ccon3)CC[C@H]21  hNav1.7 (Homo sapiens (Human), UniProt Q15858)      log10 of IC50        1.70
3  COc1cc(-c2cc(C(F)(F)F)ccc2F)c(F)cc1N1C(=O)CO[C@H]2CN(S(=O)(=O)Nc3ccon3)CC[C@@H]21  hNav1.7 (Homo sapiens (Human), UniProt Q15858)      log10 of IC50        0.69
4  COc1cc(-c2cccc(OC(F)(F)F)c2)c(F)cc1N1CCO[C@H]2CN(S(=O)(=O)Nc3ccon3)CC[C@@H]21  hNav1.7 (Homo sapiens (Human), UniProt Q15858)      log10 of IC50        1.04

Sample "COc1cc(-c2cccc(C(F)(F)F)c2)c(F)cc1N1CCO[C@H]2CN(S(=O)(=O)Nc3ccncn3)CC[C@@H]21" ; log10 of IC50 observed: 0.32
